Below, each entry is listed with its recorded C0.
# method: Cassette pharmacokinetic test in mice (plasma, brain, CSF)
# Type: in vivo, male CD-1 mice
# reported.conditions: mouse, plasma, 1 mg/kg; IV @ 1 mpk, cassette, male CD-1 mice; read-out: Initial Concentration C0
# Protocol: The pharmacokinetic behaviors of the compounds of the present invention in mice were studied and the pharmacokinetic properties thereof were evaluated.
experimental.endpoint: C0 (nM)

1) C[C@H]1CNC(=O)c2cnn3ccc(nc23)N[C@H](C)c2cc(F)ccc2O1: 2250
2) O=C1NC2(CC2)COc2ncc(F)cc2[C@H]2CCON2c2ccn3ncc1c3n2: 3710
3) O=C(Nc1cnn2ccc(N3CCC[C@@H]3c3cc(F)ccc3F)nc12)N1CC[C@H](O)C1: 2380

----------
# method: Cassette pharmacokinetic test in mice (plasma, brain, CSF)
# Type: in vivo, male CD-1 mice
# reported.conditions: mouse, plasma, 1 mg/kg; IV @ 1 mpk, cassette, male CD-1 mice; read-out: Apparent Distribution Volume Vd
This listing pairs compounds with measured Vd.
experimental.endpoint: Vd (L/kg)

1. O=C(Nc1cnn2ccc(N3CCC[C@@H]3c3cc(F)ccc3F)nc12)N1CC[C@H](O)C1: 1.57
2. C[C@H]1CNC(=O)c2cnn3ccc(nc23)N[C@H](C)c2cc(F)ccc2O1: 2.63
3. O=C1NC2(CC2)COc2ncc(F)cc2[C@H]2CCON2c2ccn3ncc1c3n2: 0.57

----------
# method: Pharmacokinetic test in mice
# Assay type: in vivo
# reported.conditions: mouse, plasma; PO, dosage given as 10 mL/kg, male CD-1 mice; read-out: Area under Curve AUC0-last
experimental.endpoint: AUC(0-t) (µM·h)

1. O=C1NC2(CC2)COc2ncc(F)cc2[C@H]2CCON2c2ccn3ncc1c3n2 [Compound of Formula (I)]: 29.8

----------
# method: Cassette pharmacokinetic test in mice (plasma, brain, CSF)
# Type: in vivo, male CD-1 mice
# reported.conditions: male, CD-1, mouse, in vivo, po, 3 mg/kg
experimental.endpoint: Tmax (min)

1) CN1CCN(c2ccc(C(=O)Nc3n[nH]c4ccc(Cc5cc(F)cc(F)c5)cc34)c(NC3CCOCC3)c2)CC1 [RXDX-101, Entrectinib]: 45
